test system: Enterococcus sp.; test: In vitro antibacterial evaluation: minimum inhibitory concentration (MIC), broth dilution method; assay type: cell-based; conditions: Enterococcus faecium (GC 4557); 18 hours at 35° C.
Numbered stars: 1 amine (or outer) side, 2 acyl side, 3 side chain; on linkers, the order of the positions; unused ones are H or OH. Square brackets hold non-standard residues; d marks the D form. Peptide text beside a SMILES is read from it. ξ: configuration not given here. X3 = CC1(C)OCC2OC(N3C(=N)NCC3C(O)C(N[*:1])C(=O)[*:2])C3OC(C)(C)OC3C2O1; ξEnduracididine(βξ-OH,4'ξ) = N=C1NCC(C(O)C(N)C(=O)O)N1; ξPhe(βξ-Me) = CC(c1ccccc1)C(N)C(=O)O
Below, each entry is listed alongside its reported MIC Enterococcus faecium (GC 4557).
endpoint-name: MIC Enterococcus faecium (GC 4557) (µg/mL)

compound="CC(c1ccccc1)C1NC(=O)CNC(=O)C(CO)NC(=O)C(C(O)C2CNC(=N)N2C2OC(CO)C(O)C(O)C2O)NC(=O)C(C(O)C2CNC(=N)N2)NC(=O)C(Cc2ccc(OC3OC(CO)C(OC4OC5COC6(CCCCC6(C)C)OC5C(O)C4O)C(O)C3O)cc2)NC1=O (stereo not shown)" relation_qualifier== recorded_value=4
compound="CC(C)=CCCC(C)=CCCC(C)=CCOc1cccc(C2OCC3OC(OC4C(CO)OC(Oc5ccc(CC6NC(=O)C(C(C)c7ccccc7)NC(=O)CNC(=O)C(CO)NC(=O)C(C(O)C7CNC(=N)N7C7OC(CO)C(O)C(O)C7O)NC(=O)C(C(O)C7CNC(=N)N7)NC6=O)cc5)C(O)C4O)C(O)C(O)C3O2)c1 (stereo not shown)" relation_qualifier=> recorded_value=64
compound="N=C1NCC(C(O)C2NC(=O)C(Cc3ccc(OC4OC(CO)C(OC5OC6COC(Cc7ccccc7)OC6C(O)C5O)C(O)C4O)cc3)NC(=O)C(CC3CCCCC3)NC(=O)CNC(=O)C(CO)NC(=O)C(C(O)C3CNC(=N)N3C3OC(CO)C(O)C(O)C3O)NC2=O)N1 (stereo not shown)" relation_qualifier== recorded_value=2
compound="CC(c1ccccc1)C1NC(=O)CNC(=O)C(CO)NC(=O)C(C(O)C2CNC(=N)N2C2OC3COC(C)(C)OC3C3OC(C)(C)OC32)NC(=O)C(C(O)C2CNC(=N)N2)NC(=O)C(Cc2ccc(O)cc2)NC1=O (stereo not drawn) [Example 247] (cyclo(G[ξPhe(βξ-Me)]Y[ξEnduracididine(βξ-OH,4'ξ)][X3]S); configuration not given here)" relation_qualifier=> recorded_value=64
compound="CC(C1CCCCC1)C1NC(=O)CNC(=O)C(CO)NC(=O)C(C(O)C2CNC(=N)N2C2OC(CO)C(O)C(O)C2O)NC(=O)C(C(O)C2CNC(=N)N2)NC(=O)C(Cc2ccc(OC3OC(CO)C(OC4OC5COC(c6ccccc6)OC5C(O)C4O)C(O)C3O)cc2)NC1=O (stereo not shown)" relation_qualifier== recorded_value=0.5
compound="CC(c1ccccc1)C1NC(=O)CNC(=O)C(CO)NC(=O)C(C(O)C2CNC(=N)N2C2OC(CO)C(O)C(O)C2O)NC(=O)C(C(O)C2CNC(=N)N2)NC(=O)C(Cc2ccc(OC3OC(CO)C(OC4OC5COC(c6cccc(Oc7cccc(C(F)(F)F)c7)c6)OC5C(O)C4O)C(O)C3O)cc2)NC1=O (stereo not shown)" relation_qualifier== recorded_value=32
compound="CC(c1ccccc1)C1NC(=O)CNC(=O)C(CO)NC(=O)C(C(O)C2CNC(=N)N2C2OC(CO)C(O)C(O)C2O)NC(=O)C(C(O)C2CNC(=N)N2)NC(=O)C(Cc2ccc(OC3OC(CO)C(OC4OC5COC6(CC7CCC6(C)C7(C)C)OC5C(O)C4O)C(O)C3O)cc2)NC1=O (stereo not shown)" relation_qualifier== recorded_value=2
